System: GST-mGluR5 or GST-Shank3 (residues 1143-1408)
Test: GST pull-down binding of Homer EVH1 point mutants
Set-up: key: wild-type (+); (−) indicates substantially reduced binding relative to wild-type (+)
Settings: GST pull-down of myc-tagged mutants from HEK293 lysates, relative to wild-type
READOUT_LABEL: Binding

[[record]]
molecule = "R46A: point mutant of the Homer EVH1 domain (protein, left off: small tags and cut ends, point mutant of the Homer EVH1 domain) MGEQPIFSTRAHVFQIDPNTKKNWVPTSKHAVTVSYFYDSTRNVYAIISLDGSKAIINSTITPNMTFTKTSQKFGQWADSRANTVYGLGFSSEHHLSKFAEKFQEFKEAARLAKEKSQEK"
readout_label = "Binding"
value = "−"

[[record]]
molecule = "H95A: point mutant of the Homer EVH1 domain (protein, left off: small tags and cut ends, point mutant of the Homer EVH1 domain) MGEQPIFSTRAHVFQIDPNTKKNWVPTSKHAVTVSYFYDSTRNVYRIISLDGSKAIINSTITPNMTFTKTSQKFGQWADSRANTVYGLGFSSEHALSKFAEKFQEFKEAARLAKEKSQEK"
readout_label = "Binding"
value = "+"

[[record]]
molecule = "D39A: point mutant of the Homer EVH1 domain (protein, left off: small tags and cut ends, point mutant of the Homer EVH1 domain) MGEQPIFSTRAHVFQIDPNTKKNWVPTSKHAVTVSYFYASTRNVYRIISLDGSKAIINSTITPNMTFTKTSQKFGQWADSRANTVYGLGFSSEHHLSKFAEKFQEFKEAARLAKEKSQEK"
readout_label = "Binding"
value = "−"

[[record]]
molecule = "L96S: point mutant of the Homer EVH1 domain (protein, left off: small tags and cut ends, point mutant of the Homer EVH1 domain) MGEQPIFSTRAHVFQIDPNTKKNWVPTSKHAVTVSYFYDSTRNVYRIISLDGSKAIINSTITPNMTFTKTSQKFGQWADSRANTVYGLGFSSEHHSSKFAEKFQEFKEAARLAKEKSQEK"
readout_label = "Binding"
value = "+"

[[record]]
molecule = "N23A: point mutant of the Homer EVH1 domain (protein, left off: small tags and cut ends, point mutant of the Homer EVH1 domain) MGEQPIFSTRAHVFQIDPNTKKAWVPTSKHAVTVSYFYDSTRNVYRIISLDGSKAIINSTITPNMTFTKTSQKFGQWADSRANTVYGLGFSSEHHLSKFAEKFQEFKEAARLAKEKSQEK"
readout_label = "Binding"
value = "+"


All figures here come from patent US7378498B2.
